Measured inhibition of individual entries
# tested-system: Tyrosine-protein kinase ABL1 (Homo sapiens) (UniProt P00519)
# Sequence (P00519 whole entry): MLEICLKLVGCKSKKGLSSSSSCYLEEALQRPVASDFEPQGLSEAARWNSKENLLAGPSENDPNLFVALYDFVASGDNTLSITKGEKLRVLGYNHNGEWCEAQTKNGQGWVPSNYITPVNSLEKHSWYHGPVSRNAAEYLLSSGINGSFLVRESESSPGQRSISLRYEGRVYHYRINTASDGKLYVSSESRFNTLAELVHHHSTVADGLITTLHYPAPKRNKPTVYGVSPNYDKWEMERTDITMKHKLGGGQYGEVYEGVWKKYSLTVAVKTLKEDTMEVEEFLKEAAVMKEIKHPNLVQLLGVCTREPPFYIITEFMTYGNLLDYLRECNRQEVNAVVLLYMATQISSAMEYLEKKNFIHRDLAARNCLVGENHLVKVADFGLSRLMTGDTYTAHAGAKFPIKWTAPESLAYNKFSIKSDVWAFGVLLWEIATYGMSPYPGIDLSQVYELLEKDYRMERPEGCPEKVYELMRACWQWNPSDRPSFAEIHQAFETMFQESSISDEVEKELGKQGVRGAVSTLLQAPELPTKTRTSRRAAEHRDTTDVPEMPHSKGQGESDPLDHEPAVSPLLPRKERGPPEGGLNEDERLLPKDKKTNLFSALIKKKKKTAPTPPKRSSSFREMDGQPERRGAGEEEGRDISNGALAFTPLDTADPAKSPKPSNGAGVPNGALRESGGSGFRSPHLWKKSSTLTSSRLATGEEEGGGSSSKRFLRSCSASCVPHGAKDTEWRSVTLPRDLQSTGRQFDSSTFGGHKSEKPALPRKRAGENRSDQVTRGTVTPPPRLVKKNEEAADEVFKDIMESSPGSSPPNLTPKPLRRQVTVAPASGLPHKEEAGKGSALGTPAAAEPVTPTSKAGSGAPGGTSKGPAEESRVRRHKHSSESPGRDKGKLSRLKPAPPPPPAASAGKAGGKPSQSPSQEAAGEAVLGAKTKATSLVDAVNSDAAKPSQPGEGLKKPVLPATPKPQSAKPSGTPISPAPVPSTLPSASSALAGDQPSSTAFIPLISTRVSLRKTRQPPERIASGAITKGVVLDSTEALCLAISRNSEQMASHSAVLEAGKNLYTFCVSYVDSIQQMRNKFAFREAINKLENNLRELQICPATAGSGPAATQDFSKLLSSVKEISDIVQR
# cond: at 0.1 µM
# Description: GSK_PKIS: ABL1 mean inhibition at 0.1 uM [Nanosyn]

1) CCn1c(-c2nonc2N)nc2c(C#CCN)ncc(OCCCN)c21 ... 1.03%
2) COc1cccc(COc2cc(-n3cnc4ccccc43)sc2C(N)=O)c1 ... -2.41%
3) Fc1ccc(-c2ncn(C3CCNCC3)c2-c2ccnc(Oc3ccccc3)n2)cc1 ... -2.46%
4) COc1cc(C=NNc2ncnc3c2cnn3Cc2ccccc2)ccc1O ... 40.6%
5) COc1cccc(-n2ncc3c(N/N=C/c4ccncc4)ncnc32)c1 ... 69.3%
6) NS(=O)(=O)c1ccc(N/C=C2\C(=O)Nc3ccc4ncsc4c32)cc1 ... 8.9%

Tell me the measured inhibition of CCn1c(-c2nonc2N)nc2c(C#CC(C)(C)O)ncc(OC[C@@H]3CCCN3)c21 , please. 1.81%

Then this molecule: Cc1cc(-c2ccco2)cc(C)c1/C=C/c1cncc(-c2nn[nH]n2)c1 2.83%

Then this molecule: NC(=O)c1sc(-n2cnc3cc(C(F)(F)F)ccc32)cc1OCc1ccccc1Br 3.16%

Then this molecule: CCn1c(-c2nonc2N)nc2c(C#CC(C)(C)O)nc(O[C@@H](CN)c3ccccc3)cc21 0.27%

Then this molecule: Nc1nonc1-c1nc2cnccc2n1C1CCCCC1 -0.08%
